This section presents compounds with their documented cell viability values.
tested on: HepG2; test: cell viability relative to DMSO; higher = less toxic; settings: 72 h; 100 nM
Give just the number in %; leave the unit off.

In: State the recorded cell viability for this entry: "Fc1cc(-c2cccc3ncc(-c4cnn(C5CCNCC5)c4)nc23)cc(F)c1CN1CCOCC1"
Out: 96.2

Further cases:
In: State the recorded cell viability for this entry: "Cc1cc(-c2ncc(CC(=O)Nc3ccc(-c4cnccn4)cn3)cc2C)ccn1"
Out: 97.9

In: // query: "O=C1[C@@H]2[C@H]3CC[C@H](C3)[C@@H]2C(=O)N1CCCCN1CCN(c2ncccn2)CC1"
Out: 110

In: // query: "CC(C)(CCCCCC(O)CCCCCC(C)(C)C(=O)O)C(=O)O"
Out: 107

In: // query: "N#Cc1cnc2cnc(NCc3cccnc3)cc2c1Nc1ccc(F)c(Cl)c1"
Out: 107

---

tested on: Calu-3; test: drug sensitivity score (DSS) for viability; higher = more toxic; extreme values may be limits of the assay; details: 72 h
ENDPOINT NAME: drug sensitivity score
// return just the number, without any unit appended

In: State the recorded drug sensitivity score for this entry: CCCN1CCCC[C@H]1C(=O)Nc1c(C)cccc1C [ropivacaine]
Out: 0

In: // query: CC(C)N(CCCCOCC(=O)NS(C)(=O)=O)c1cnc(-c2ccccc2)c(-c2ccccc2)n1 [selexipag]
Out: 0

In: // query: O=C(OC[C@H]1O[C@@H](OC(=O)c2cc(O)c(O)c(OC(=O)c3cc(O)c(O)c(O)c3)c2)[C@H](OC(=O)c2cc(O)c(O)c(OC(=O)c3cc(O)c(O)c(O)c3)c2)[C@@H](OC(=O)c2cc(O)c(O)c(OC(=O)c3cc(O)c(O)c(O)c3)c2)[C@@H]1OC(=O)c1cc(O)c(O)c(OC(=O)c2cc(O)c(O)c(O)c2)c1)c1cc(O)c(O)c(OC(=O)c2cc(O)c(O)c(O)c2)c1 [tannic-acid]
Out: 0.4

In: // query: CN(C)CC/C=C1/c2ccccc2Sc2ccc(Cl)cc21 [chlorprothixene]
Out: 0.1

In: // query: COc1ccc(C(=O)N2CCCC2=O)cc1 [aniracetam]
Out: 0

In: // query: S=C(NCCc1ccccn1)Nc1ccc(Br)cn1 [trovirdine]
Out: 0

Further cases:
In: State the recorded drug sensitivity score for this entry: C[C@H](Cc1ccc(O)c(O)c1)[C@@H](C)Cc1ccc(O)c(O)c1 [masoprocol]
Out: 0

In: // query: CC(C)(O)[C@@H]1[C@H]2OC(=O)[C@@H]1[C@]1(O)C[C@H]3O[C@]34C(=O)O[C@H]2[C@]14C [picrotin]
Out: 0

In: // query: COc1cccc2c1C(=O)c1c(O)c3c(c(O)c1C2=O)C[C@@](O)(C(=O)CO)C[C@@H]3O[C@H]1C[C@H](N)[C@H](O[C@@H]2CCCCO2)[C@H](C)O1 [pirarubicin]
Out: 9.6

In: // query: CC(=O)NS(=O)(=O)c1ccc(NC(=O)c2ccccc2C(=O)O)cc1 [phthalylsulfacetamide]
Out: 0

In: // query: COc1cc(NC(=O)c2cccc(-n3cc(NC(=O)Nc4cccc(C)c4)cn3)c2)cc(OC)c1OC [SR-3576]
Out: 0.6

In: // query: COCc1nc2c([nH]1)c(=O)n(C)c(=O)n2CC(C)C [MMPX]
Out: 0
